The measured values listed here are drawn from patent US8987309B2.

- Test system: A498
- protocol.notes: IC50 in tumor cell lines (A498)
- Type: cell-based
- experimental.setup: Table 2; kidney tumor cell line A498
reported.metric: pIC50
Answers are plain numbers, as −log10 of the molar value.

[in] # get_value(readout='pIC50', item= COc1ccc(-c2cnc(-c3ccncc3-c3cccc(OC)c3)o2)cc1 [DPC046] )
[out] 7.85

---

- System: A549
- protocol.notes: IC50 in tumor cell lines (A549)
- Assay type: cell-based
- experimental.setup: Table 2; lung tumor cell line A549
reported.metric: IC50 (nM)
Answers are plain numbers, in nM.

[in] # get_value(readout='IC50', item= COc1ccc(-c2cnc(-c3ccncc3-c3cccc(OC)c3)o2)cc1 )
[out] 22
